tested on: SW 900; assay: relative viability (nuclei count vs DMSO), 5 days (fraction); higher = more cells survive; settings: first compound 1.265 µM
Below, each entry is listed with its recorded relative viability.
Output spec: single numeric token, no unit.

Item COc1cc(N2CCC(C(N)=O)CC2)ccc1Nc1nc(N)c(Cl)c(Nc2ccccc2S(=O)(=O)C(C)C)n1 [HG-5-88-01] + CC(=O)c1c(C)c2cnc(Nc3ccc(N4CCNCC4)cn3)nc2n(C2CCCC2)c1=O [Palbociclib] (partner 0.5 µM) has what recorded relative viability?
0.509

// next record Clc1ccc(Nc2nnc(Cc3ccncc3)c3ccccc23)cc1 [Vatalanib] + O=C(c1cc(Cc2n[nH]c(=O)c3ccccc23)ccc1F)N1CCN(C(=O)C2CC2)CC1 [Olaparib] (partner 8 µM)
0.853

// next record Clc1ccc(Nc2nnc(Cc3ccncc3)c3ccccc23)cc1 [Vatalanib] + CCNC(=O)c1noc(-c2cc(C(C)C)c(O)cc2O)c1-c1ccc(CN2CCOCC2)cc1 [Luminespib] (partner 0.01 µM)
0.166

// next record Clc1ccc(Nc2nnc(Cc3ccncc3)c3ccccc23)cc1 [Vatalanib] + Nc1ncn([C@H]2C[C@H](O)[C@@H](CO)O2)c(=O)n1 [Decitabine] (partner 2 µM)
0.423

Next, consider the following molecule.
Item COc1cc(N2CCC(C(N)=O)CC2)ccc1Nc1nc(N)c(Cl)c(Nc2ccccc2S(=O)(=O)C(C)C)n1 [HG-5-88-01] + NC(=O)Nc1cc(-c2cccc(F)c2)sc1C(=O)N[C@H]1CCCNC1 [AZD7762] (partner 0.2 µM) has what recorded relative viability?
0.517

====

Below, each entry is listed with its recorded relative viability.
test system: SW 1573; test: relative viability (nuclei count vs DMSO), 5 days (fraction); higher = more cells survive; details: first compound 0.04 µM
Output spec: single numeric token, no unit.

Item C[C@@H]1CN(CC(=O)Nc2ccc3c(c2)Cc2cccc(-c4cc(=O)cc(N5CCOCC5)o4)c2S3)C[C@H](C)O1 + O=C(c1cc(Cc2n[nH]c(=O)c3ccccc23)ccc1F)N1CCN(C(=O)C2CC2)CC1 [Olaparib] (partner 8 µM) has what recorded relative viability?
0.553

// next record COc1cc(N2CCC(C(N)=O)CC2)ccc1Nc1nc(N)c(Cl)c(Nc2ccccc2S(=O)(=O)C(C)C)n1 [HG-5-88-01] + CC1(C)CCC(c2ccc(Cl)cc2)=C(CN2CCN(c3ccc(C(=O)NS(=O)(=O)c4ccc(N[C@H](CCN5CCOCC5)CSc5ccccc5)c(S(=O)(=O)C(F)(F)F)c4)cc3)CC2)C1 [Navitoclax] (partner 0.5 µM)
0.952

// next record C[C@@H]1CN(CC(=O)Nc2ccc3c(c2)Cc2cccc(-c4cc(=O)cc(N5CCOCC5)o4)c2S3)C[C@H](C)O1 + CC(=O)c1c(C)c2cnc(Nc3ccc(N4CCNCC4)cn3)nc2n(C2CCCC2)c1=O [Palbociclib] (partner 0.5 µM)
0.501

// next record COc1cc(N2CCC(C(N)=O)CC2)ccc1Nc1nc(N)c(Cl)c(Nc2ccccc2S(=O)(=O)C(C)C)n1 [HG-5-88-01] + Cc1cc(Nc2cc(N3CCN(C)CC3)nc(Sc3ccc(NC(=O)C4CC4)cc3)n2)n[nH]1 [Tozasertib] (partner 0.1 µM)
0.169

// next record COc1cc(N2CCC(C(N)=O)CC2)ccc1Nc1nc(N)c(Cl)c(Nc2ccccc2S(=O)(=O)C(C)C)n1 [HG-5-88-01] + CC(=O)Nc1cccc(-n2c(=O)n(C3CC3)c(=O)c3c(Nc4ccc(I)cc4F)n(C)c(=O)c(C)c32)c1 [Trametinib] (partner 0.02 µM)
0.598

Next, consider the following compound.
Item Clc1ccc(Nc2nnc(Cc3ccncc3)c3ccccc23)cc1 [Vatalanib] + CS(=O)(=O)CCNCc1ccc(-c2ccc3ncnc(Nc4ccc(OCc5cccc(F)c5)c(Cl)c4)c3c2)o1 [Lapatinib] (partner 2 µM) has what recorded relative viability?
1.29

====

Below, each entry is listed with its recorded relative viability.
test system: NCI-H522; assay: relative viability (nuclei count vs DMSO), 5 days (fraction); higher = more cells survive; conditions: first compound 4 µM
Output spec: single numeric token, no unit.

Worked examples, 3 compounds total:
Hello, I am looking for reported relative viability with NCI-H522 for C[C@@H]1CN(CC(=O)Nc2ccc3c(c2)Cc2cccc(-c4cc(=O)cc(N5CCOCC5)o4)c2S3)C[C@H](C)O1 + Nc1nc2[nH]cc(CCc3ccc(C(=O)N[C@@H](CCC(=O)O)C(=O)O)cc3)c2c(=O)[nH]1 [Pemetrexed] (partner 0.2 µM) . Could you help?
1.11

// next record COc1cc(N2CCC(C(N)=O)CC2)ccc1Nc1nc(N)c(Cl)c(Nc2ccccc2S(=O)(=O)C(C)C)n1 [HG-5-88-01] + CC(=O)Nc1cccc(-n2c(=O)n(C3CC3)c(=O)c3c(Nc4ccc(I)cc4F)n(C)c(=O)c(C)c32)c1 [Trametinib] (partner 0.02 µM)
0.636

// next record COc1cc(N2CCC(C(N)=O)CC2)ccc1Nc1nc(N)c(Cl)c(Nc2ccccc2S(=O)(=O)C(C)C)n1 [HG-5-88-01] + Cc1nc(Nc2ncc(C(=O)Nc3c(C)cccc3Cl)s2)cc(N2CCN(CCO)CC2)n1 [Dasatinib] (partner 0.075 µM)
0.849

Next, consider the following compound.
Hello, I am looking for reported relative viability with NCI-H522 for Clc1ccc(Nc2nnc(Cc3ccncc3)c3ccccc23)cc1 [Vatalanib] + CCNC(=O)c1noc(-c2cc(C(C)C)c(O)cc2O)c1-c1ccc(CN2CCOCC2)cc1 [Luminespib] (partner 0.01 µM) . Could you help?
1.1

====

system: HCC-827; experiment: relative viability (nuclei count vs DMSO), 5 days (fraction); higher = more cells survive; conditions: first compound 4 µM
Below, each entry is listed with its recorded relative viability.
Output spec: single numeric token, no unit.

Item C[C@@H]1CN(CC(=O)Nc2ccc3c(c2)Cc2cccc(-c4cc(=O)cc(N5CCOCC5)o4)c2S3)C[C@H](C)O1 + Nc1nc2[nH]cc(CCc3ccc(C(=O)N[C@@H](CCC(=O)O)C(=O)O)cc3)c2c(=O)[nH]1 [Pemetrexed] (partner 0.2 µM) has what recorded relative viability?
0.3

// next record C[C@@H]1CN(CC(=O)Nc2ccc3c(c2)Cc2cccc(-c4cc(=O)cc(N5CCOCC5)o4)c2S3)C[C@H](C)O1 + Cc1cc(Nc2cc(N3CCN(C)CC3)nc(Sc3ccc(NC(=O)C4CC4)cc3)n2)n[nH]1 [Tozasertib] (partner 0.1 µM)
0.427

// next record COc1cc(N2CCC(C(N)=O)CC2)ccc1Nc1nc(N)c(Cl)c(Nc2ccccc2S(=O)(=O)C(C)C)n1 [HG-5-88-01] + Cc1nc(NC(=O)N2CCC[C@H]2C(N)=O)sc1-c1ccnc(C(C)(C)C(F)(F)F)c1 [Alpelisib] (partner 2 µM)
0.353

// next record Clc1ccc(Nc2nnc(Cc3ccncc3)c3ccccc23)cc1 [Vatalanib] + COc1cc2c(Oc3ccc(NC(=O)C4(C(=O)Nc5ccc(F)cc5)CC4)cc3F)ccnc2cc1OCCCN1CCOCC1 [Foretinib] (partner 0.25 µM)
1.03

====

system: NCI-H460; test: relative viability (nuclei count vs DMSO), 5 days (fraction); higher = more cells survive; conditions: first compound 0.03162 µM
Below, each entry is listed with its recorded relative viability.

Hello, I am looking for reported relative viability with NCI-H460 for CC(C)Oc1cc(Nc2nc(N[C@@H](C)c3ccc(F)cn3)ncc2Cl)n[nH]1 [AZ23] + O=C(CCCCCCC(=O)Nc1ccccc1)NO [Vorinostat] (partner 1 µM) . Could you help?
1.06

Continuing:
Hello, I am looking for reported relative viability with NCI-H460 for CC(C)Oc1cc(Nc2nc(N[C@@H](C)c3ccc(F)cn3)ncc2Cl)n[nH]1 [AZ23] + CS(=O)(=O)CCNCc1ccc(-c2ccc3ncnc(Nc4ccc(OCc5cccc(F)c5)c(Cl)c4)c3c2)o1 [Lapatinib] (partner 2 µM) . Could you help?
1.1

// next record CC(C)Oc1cc(Nc2nc(N[C@@H](C)c3ccc(F)cn3)ncc2Cl)n[nH]1 [AZ23] + NC(=O)Nc1cc(-c2cccc(F)c2)sc1C(=O)N[C@H]1CCCNC1 [AZD7762] (partner 0.2 µM)
0.751

// next record CC(C)Oc1cc(Nc2nc(N[C@@H](C)c3ccc(F)cn3)ncc2Cl)n[nH]1 [AZ23] + CCNC(=O)c1noc(-c2cc(C(C)C)c(O)cc2O)c1-c1ccc(CN2CCOCC2)cc1 [Luminespib] (partner 0.01 µM)
0.0332

// next record CC(C)Oc1cc(Nc2nc(N[C@@H](C)c3ccc(F)cn3)ncc2Cl)n[nH]1 [AZ23] + O=C(c1cc(Cc2n[nH]c(=O)c3ccccc23)ccc1F)N1CCN(C(=O)C2CC2)CC1 [Olaparib] (partner 8 µM)
0.518

====

system: LC-2-ad; test: relative viability (nuclei count vs DMSO), 5 days (fraction); higher = more cells survive; settings: first compound 0.01 µM
Below, each entry is listed with its recorded relative viability.
Output spec: single numeric token, no unit.

Worked examples, 3 compounds total:
Item CC(C)Oc1cc(Nc2nc(N[C@@H](C)c3ccc(F)cn3)ncc2Cl)n[nH]1 [AZ23] + C[C@]1(O)C[C@@H](c2nc(-c3ccc4ccc(-c5ccccc5)nc4c3)c3c(N)nccn32)C1 [Linsitinib] (partner 1 µM) has what recorded relative viability?
0.941

// next record CC(C)Oc1cc(Nc2nc(N[C@@H](C)c3ccc(F)cn3)ncc2Cl)n[nH]1 [AZ23] + CS(=O)(=O)CCNCc1ccc(-c2ccc3ncnc(Nc4ccc(OCc5cccc(F)c5)c(Cl)c4)c3c2)o1 [Lapatinib] (partner 2 µM)
1.32

// next record CC(C)Oc1cc(Nc2nc(N[C@@H](C)c3ccc(F)cn3)ncc2Cl)n[nH]1 [AZ23] + CC(=O)c1c(C)c2cnc(Nc3ccc(N4CCNCC4)cn3)nc2n(C2CCCC2)c1=O [Palbociclib] (partner 0.5 µM)
0.593

Continuing:
Item CC(C)Oc1cc(Nc2nc(N[C@@H](C)c3ccc(F)cn3)ncc2Cl)n[nH]1 [AZ23] + NC(=O)Nc1cc(-c2cccc(F)c2)sc1C(=O)N[C@H]1CCCNC1 [AZD7762] (partner 0.2 µM) has what recorded relative viability?
1.04

// next record CC(C)Oc1cc(Nc2nc(N[C@@H](C)c3ccc(F)cn3)ncc2Cl)n[nH]1 [AZ23] + CC(=O)Nc1cccc(-n2c(=O)n(C3CC3)c(=O)c3c(Nc4ccc(I)cc4F)n(C)c(=O)c(C)c32)c1 [Trametinib] (partner 0.02 µM)
1.09

// next record CC(C)Oc1cc(Nc2nc(N[C@@H](C)c3ccc(F)cn3)ncc2Cl)n[nH]1 [AZ23] + COc1cccc2cc(-c3nc([C@H]4CC[C@H](C(=O)O)CC4)n4ncnc(N)c34)[nH]c12 [OSI-027] (partner 0.5 µM)
0.953

// next record CC(C)Oc1cc(Nc2nc(N[C@@H](C)c3ccc(F)cn3)ncc2Cl)n[nH]1 [AZ23] + C[C@@H](Oc1cc(-c2cnn(C3CCNCC3)c2)cnc1N)c1c(Cl)ccc(F)c1Cl [Crizotinib] (partner 1 µM)
0.471
